# studyTarget: Acetylcholinesterase (Homo sapiens)
# Sequence (P22303 whole entry): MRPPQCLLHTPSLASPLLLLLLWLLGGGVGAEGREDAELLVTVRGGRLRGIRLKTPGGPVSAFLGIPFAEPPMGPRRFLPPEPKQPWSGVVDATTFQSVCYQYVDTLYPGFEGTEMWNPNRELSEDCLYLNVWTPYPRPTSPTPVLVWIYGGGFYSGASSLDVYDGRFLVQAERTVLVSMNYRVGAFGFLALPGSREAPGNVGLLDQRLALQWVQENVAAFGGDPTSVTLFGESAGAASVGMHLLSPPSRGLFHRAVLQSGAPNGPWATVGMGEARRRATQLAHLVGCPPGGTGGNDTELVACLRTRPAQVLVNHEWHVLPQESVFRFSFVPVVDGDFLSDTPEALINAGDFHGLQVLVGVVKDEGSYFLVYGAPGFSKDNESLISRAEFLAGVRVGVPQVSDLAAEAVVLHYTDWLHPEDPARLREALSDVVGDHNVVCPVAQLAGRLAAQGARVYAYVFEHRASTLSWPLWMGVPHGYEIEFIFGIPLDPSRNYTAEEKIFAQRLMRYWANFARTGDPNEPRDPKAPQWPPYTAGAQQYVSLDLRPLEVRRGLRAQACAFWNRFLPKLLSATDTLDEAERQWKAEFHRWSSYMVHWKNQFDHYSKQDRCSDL
# experimentalProtocol: Inhibition of human plasma AChE using acetylthiocholine iodide as substrate preincubated for 15 mins followed by substrate addition and measured after 10 mins by Ellman's method
measureName: IC50

>>> print(df.to_string())
                                smilesentry  assayvalue
0  O=C(CN1CCN(C(=O)c2ccc(Cl)cc2)CC1)N1CCN(CCCc2c[nH]c3ccccc23)CC1     35.2 µM
1  COc1ccc(C(=O)N2CCN(CC(=O)N3CCN(CCCc4c[nH]c5ccccc45)CC3)CC2)cc1     25.1 µM
2  COc1ccc2[nH]cc(CCCN3CCN(C(=O)CN4CCN(C(=O)c5ccc(F)cc5)CC4)CC3)c2c1     > 50 µM
3  O=C(CN1CCN(C(=O)c2ccc(Br)cc2)CC1)N1CCN(CCCc2c[nH]c3ccccc23)CC1     35.7 µM
4  COc1cccc(C(=O)N2CCN(CC(=O)N3CCN(CCCc4c[nH]c5ccccc45)CC3)CC2)c1     > 50 µM
5  COc1ccc2[nH]cc(CCCN3CCN(C(=O)CN4CCN(C(=O)c5ccccc5)CC4)CC3)c2c1     > 50 µM
6  Cc1ccc(C(=O)N2CCN(CC(=O)N3CCN(CCCc4c[nH]c5ccc(F)cc45)CC3)CC2)cc1      3.6 µM
7  O=C(CN1CCN(C(=O)c2cccc(F)c2)CC1)N1CCN(CCCc2c[nH]c3ccc(F)cc23)CC1     > 50 µM
